Cited source: ChEMBL document CHEMBL4840328

- Tested on: SW480
- protocol notes: Cytotoxicity against human SW480 cells assessed as cell viability measured after 72 hrs by MTT assay
- Type: functional, cell-based
- assay context: SW480, 72 h
observed property: pIC50
Answers are plain numbers, as −log10 of the molar value.

I'd like to know its pIC50. The molecule in question is COc1cc2c(cc1O)[C@@H]1Cc3ccc(OC)c(O)c3CN1CC2
5.37

###

- protocol notes: Cytotoxicity against HRPE cells overexpressing MYC/Bcl2 assessed as cell viability measured after 72 hrs by MTT assay
- Assay type: functional, cell-based
- assay context: Homo sapiens
observed property: IC50 (µM)
Numbers only, in µM.

I'd like to know its IC50. The compound in question is COc1cc2c(cc1O)[C@@H]1Cc3ccc(OC)c(O)c3CN1CC2 [SCOULERINE]
4.62

###

- protocol notes: Cytotoxicity against HRPE cells overexpressing MYC assessed as cell viability measured after 72 hrs by MTT assay
- Assay type: functional, cell-based
- assay context: Homo sapiens
observed property: IC50 (µM)
Answers are plain numbers, in µM.

I'd like to know its IC50. The compound in question is COc1cc2c(cc1O)[C@@H]1Cc3ccc(OC)c(O)c3CN1CC2 [SCOULERINE]
4.07

###

- Test system: NCI-H23
- protocol notes: Cytotoxicity against human NCI-H23 cells harboring MYC assessed as cell viability measured after 72 hrs by MTT assay
- Format: functional, cell-based
- assay context: NCI-H23, 72 h
observed property: pIC50
Give bare numbers, as −log10 of the molar value.

I'd like to know its pIC50. The molecule in question is COc1cc2c(cc1O)[C@@H]1Cc3ccc(OC)c(O)c3CN1CC2 [SCOULERINE]
5.59
